molecular target: SOS1:KRAS (G12C) interaction (Homo sapiens (Human)); assay: SOS1 KRas(G12C) FRET Assay; settings: 0.5 nM His10-SOS1 (res. 564-1049), 2.5 nM GST-KRAS G12C (res. 1-169), 2 hrs at RT
Form field: IC50 (one value per entry).
measure-name: IC50 (nM)

1) C[C@@H](NC(=O)c1cn(C2(C(F)F)CC2)c(=O)cc1N[C@H]1CCNC2(CC2)C1)c1cccc(C(F)F)c1F (single isomer, unassigned)	9.46
2) C[C@@H](NC(=O)c1cn(C23CC(C(F)F)(C2)C3)c(=O)cc1N[C@H]1[C@@H]2CN(C)C[C@@H]21)c1cccc(C(F)F)c1F	13
3) C[C@@H](NC(=O)c1cn(C2(C(F)F)CC2)c(=O)cc1N[C@H](C)c1cncn1C)c1cccc(C(F)F)c1F	87.3
4) C[C@@H](NC(=O)c1cn(C23CC(F)(C2)C3)c(=O)cc1NC1[C@@H]2CC[C@H]1CN(C)C2)c1cccc(C(F)F)c1F (stereo partly drawn) [Example 137]	35.3
5) Cc1c([C@@H](C)NC(=O)c2cn(C3CCOCC3)c(=O)cc2NC2CNC2)cccc1C(F)(F)F	75.7
6) C[C@@H](NC(=O)c1cn(C23CC(C2)C3)c(=O)cc1N[C@H]1[C@@H]2CN(C)C[C@@H]21)c1cccc(C(F)(F)F)c1	21.4

----------
biological target: SOS1:KRAS (G12C) interaction (Homo sapiens (Human)); assay: SOS1 KRas(G12C) FRET Assay; settings: 0.5 nM His10-SOS1 (res. 564-1049), 2.5 nM GST-KRAS G12C (res. 1-169), 2 hrs at RT
# note: boundary value 30 nM maps to no (0); IC50 below it maps to yes (1)

1. COc1ccc(C(C)NC(=O)c2cn(C3(C(F)F)CC3)c(=O)cc2NC2CCN(C)CC2)cc1C(F)(F)F (centres unmarked)	no (0)
2. C[C@@H](NC(=O)c1cn([C@H]2C[C@@H]2C(F)F)c(=O)cc1N[C@H]1[C@@H]2CN(C)C[C@@H]21)c1cccc(C(F)F)c1F	yes (1)
3. C[C@@H](NC(=O)c1cn(C2CCC2)c(=O)cc1NC1CCN(C)CC1)c1cccc(S(F)(F)(F)(F)F)c1	yes (1)
4. C[C@@H](NC(=O)c1cn([C@@H]2CC23CCC3)c(=O)cc1N[C@H]1[C@@H]2CN(C)C[C@@H]21)c1cccc(C(F)F)c1F (single isomer, unassigned)	yes (1)
5. C[C@@H](NC(=O)c1cn(C2(C(F)F)CC2)c(=O)cc1N[C@H]1CCN(C)C[C@@H]1F)c1cccc(C(F)F)c1F (single isomer, unassigned)	no (0)
6. C[C@@H](NC(=O)c1cn(C2(C)CN(C(=O)C3CC3)C2)c(=O)cc1N[C@H]1[C@@H]2CN(C)C[C@@H]21)c1cccc(C(F)F)c1F	yes (1)
7. C[C@@H](NC(=O)c1cn([C@H]2C[C@@H]2C(F)(F)F)c(=O)cc1N[C@H]1[C@@H]2CN(C)C[C@@H]21)c1cccc(C(F)F)c1F (single isomer, unassigned)	yes (1)
8. CO[C@H]1CN(C)CC[C@H]1Nc1cc(=O)n(C2(C(F)F)CC2)cc1C(=O)N[C@H](C)c1cccc(C(F)F)c1F	no (0)
9. C[C@@H](NC(=O)c1cn([C@H]2CC2(F)F)c(=O)cc1N[C@H]1[C@@H]2CN(C)C[C@@H]21)c1cccc(C(F)(F)F)c1F (single isomer, unassigned)	yes (1)

----------
biological target: SOS1:KRAS (G12C) interaction (Homo sapiens (Human), UniProt Q07889); assay: SOS1 KRas(G12C) FRET Assay; conditions: 0.5 nM His10-SOS1 (res. 564-1049), 2.5 nM GST-KRAS G12C (res. 1-169), 2 hrs at RT
Sequence (Q07889 564-1049, stated change not applied): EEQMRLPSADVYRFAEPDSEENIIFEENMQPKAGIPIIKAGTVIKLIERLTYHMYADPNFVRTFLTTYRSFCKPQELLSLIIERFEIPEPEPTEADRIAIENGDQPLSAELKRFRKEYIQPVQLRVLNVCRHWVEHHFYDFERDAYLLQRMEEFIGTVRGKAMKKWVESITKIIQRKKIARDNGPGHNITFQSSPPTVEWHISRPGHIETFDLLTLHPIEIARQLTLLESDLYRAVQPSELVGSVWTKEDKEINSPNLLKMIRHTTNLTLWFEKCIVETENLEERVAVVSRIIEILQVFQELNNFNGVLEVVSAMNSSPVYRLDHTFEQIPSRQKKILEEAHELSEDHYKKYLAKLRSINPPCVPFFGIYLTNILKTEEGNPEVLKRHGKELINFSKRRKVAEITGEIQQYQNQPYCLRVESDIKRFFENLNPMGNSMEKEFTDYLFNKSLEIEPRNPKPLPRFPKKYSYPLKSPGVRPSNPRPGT
Label 1 when IC50 < 20 nM; otherwise 0.

1) C[C@@H](NC(=O)c1cn(C2CCC2)c(=O)cc1N[C@H]1[C@@H]2CN(C)C[C@@H]21)c1cccc(S(F)(F)(F)(F)F)c1	0
2) C[C@@H](NC(=O)c1cn(C2(C(F)F)CC2)c(=O)cc1NC[C@H]1CC2CCN1CC2)c1cccc(C(F)F)c1F	0
3) C[C@@H](NC(=O)c1cn(C23CC(F)(C2)C3)c(=O)cc1NC1[C@@H]2CC[C@H]1CN(C)C2)c1cccc(C(F)F)c1F (stereo partly shown) [Example 136]	1
4) C[C@@H](NC(=O)c1cn(C2(C(F)F)CC2)c(=O)cc1N[C@@H]1CN2CCC1(F)CC2)c1cccc(C(F)F)c1F	0
5) C[C@@H](NC(=O)c1cn(C23CC(C)(C2)C3)c(=O)cc1N[C@H]1[C@@H]2CN(C)C[C@@H]21)c1cccc(C(F)F)c1F	1
6) C[C@@H](NC(=O)c1cn(C2(C(F)F)CC2)c(=O)cc1N[C@H]1[C@@H]2CN(C3CC3)C[C@@H]21)c1cccc(C(F)F)c1F	0
7) Cc1c([C@@H](C)NC(=O)c2cn(C3CCOCC3)c(=O)cc2NCc2cncn2C)cccc1C(F)(F)F	0
8) C[C@@H](NC(=O)c1cn(C2(C(F)F)CCC2)c(=O)cc1NC1CCN(C)CC1)c1cccc(C(F)F)c1F	1
9) C[C@@H](NC(=O)c1cn([C@H]2CCC2(F)F)c(=O)cc1N[C@@H]1[C@@H]2CC[C@H]1CN(C)C2)c1cccc(C(F)F)c1F	0
10) Cc1c([C@@H](C)NC(=O)c2cn(C3CCOCC3)c(=O)cc2NCC23CCCN2CCC3)cccc1C(F)(F)F	0
11) Cc1c([C@@H](C)NC(=O)c2cn(C3CCOCC3)c(=O)cc2N[C@H]2CC[C@@]23CCCN(C)C3)cccc1C(F)(F)F (single isomer, unassigned)	0
12) C[C@@H](NC(=O)c1cn(C23CC(C2)C3)c(=O)cc1N[C@@H]1C[C@@H]2CN(C)C[C@@H]2C1)c1cccc(C(F)F)c1F	1
13) Cc1c([C@@H](C)NC(=O)c2cn(C3CCOCC3)c(=O)cc2NCCN(C)C)cccc1C(F)(F)F	0
14) C[C@@H](NC(=O)c1cn(C2(C(F)F)CC2)c(=O)cc1N[C@@H]1CN2CCC1CC2)c1cccc(C(F)F)c1F	1
15) C[C@@H](NC(=O)c1cn(C2CC3(C2)CC(F)(F)C3)c(=O)cc1N[C@H]1[C@@H]2CN(C)C[C@@H]21)c1cccc(C(F)F)c1F	1
16) C[C@@H](NC(=O)c1cn(C2CCC(F)(F)CC2)c(=O)cc1N[C@H]1[C@@H]2CN(C)C[C@@H]21)c1cccc(C(F)F)c1F	0

----------
biological target: SOS1:KRAS (G12C) interaction (Homo sapiens (Human)); experiment: SOS1 KRas(G12C) FRET Assay; settings: 0.5 nM His10-SOS1 (res. 564-1049), 2.5 nM GST-KRAS G12C (res. 1-169), 2 hrs at RT
Below, each entry is listed with its recorded IC50.
measure-name: IC50 (µM)

1. C[C@@H](NC(=O)c1cn([C@H]2CC23CC3)c(=O)cc1N[C@H]1[C@@H]2CN(C)C[C@@H]21)c1cccc(C(C)(F)F)c1F (single isomer, unassigned)	0.027
2. C[C@@H](NC(=O)c1cn(C23CC(C2)C3)c(=O)cc1N[C@H]1[C@@H]2CN(C)C[C@@H]21)c1cccc(C#N)c1F	0.0707
3. CN1C[C@@H]2[C@H](C1)[C@H]2Nc1cc(=O)n(C2(C(F)F)CC2)cc1C(=O)N[C@@H](c1cccc(C(F)F)c1F)C(F)F	0.082

----------
Measured IC50 of individual entries
target: SOS1:KRAS (G12C) interaction (Homo sapiens (Human), UniProt Q07889); test: SOS1 KRas(G12C) FRET Assay; settings: 0.5 nM His10-SOS1 (res. 564-1049), 2.5 nM GST-KRAS G12C (res. 1-169), 2 hrs at RT
measure-name: IC50

1. C[C@@H](NC(=O)c1cn(C2(C(F)F)CC2)c(=O)cc1N[C@]12C[C@H]1CN(C)C2)c1cccc(C(F)F)c1F [Example 227]	61.9 nM
2. Cc1c([C@@H](C)NC(=O)c2cn(C3CCOCC3)c(=O)cc2N[C@@H]2CC[C@@]23CCCN(C)C3)cccc1C(F)(F)F (single isomer, unassigned) [Example 299]	51.3 nM
3. C[C@@H](NC(=O)c1cn(C2(C(F)F)CC2)c(=O)cc1N[C@H]1CCN(C)C[C@H]1F)c1cccc(C(F)F)c1F (single isomer, unassigned) [Example 64]	15 nM

----------
Target: SOS1:KRAS (G12C) interaction (Homo sapiens (Human))
Test: SOS1 KRas(G12C) FRET Assay
Details: 0.5 nM His10-SOS1 (res. 564-1049), 2.5 nM GST-KRAS G12C (res. 1-169), 2 hrs at RT
Method: Inhibition of the SOS 1:KRAS interaction was measured using purified GST-tagged KRAS (res. 1-169, G12C, purified based on Hillig, et al., Proc Natl Acad Sci USA (2019); 116(7):2551-2560) and recombinant His10-SOS1 (res. 564-1049; purified based on Hillig, et al.). […] Plates were incubated at RT for 2 hrs before the FRET signal was measured using Envision at emission 665 nm and 615 nm. […]
measure-name: IC50 (nM)

1) Cc1c([C@@H](C)NC(=O)c2cn(C3CCOCC3)c(=O)cc2NC2CN(C)C2)cccc1C(F)(F)F	59.2
2) C[C@@H](NC(=O)c1cn(C2C(F)(F)C23CC3)c(=O)cc1N[C@H]1[C@@H]2CN(C)C[C@@H]21)c1cccc(C(F)F)c1F (stereo partly drawn)	137
3) C[C@@H](NC(=O)c1cn([C@@H]2C[C@H]2C(F)(F)F)c(=O)cc1N[C@H]1[C@@H]2CN(C)C[C@@H]21)c1cccc(C(F)F)c1F (single isomer, unassigned)	13.6
4) C[C@@H](NC(=O)c1cn(C2(C)CC(F)(F)C2)c(=O)cc1NC1CCN(C)CC1)c1cccc(C(F)F)c1F	27.6
5) C[C@@H](NC(=O)c1cn([C@@H]2CCOC(C)(C)C2)c(=O)cc1NC1CCN(C)CC1)c1cccc(C(F)F)c1F (single isomer, unassigned)	4.9
6) C[C@@H](NC(=O)c1cn(C23CC(C2)C3)c(=O)cc1NC12CC(N)(C1)C2)c1cccc(C(F)F)c1F	16.3
7) Cc1c([C@@H](C)NC(=O)c2cn(C3CCOCC3)c(=O)cc2N[C@H]2CC[C@H](O)C2)cccc1C(F)(F)F	155
8) C[C@@H](NC(=O)c1cn(C23CC(C2)C3)c(=O)cc1N[C@H]1[C@@H]2CN(C)C[C@@H]21)c1cccc(C(F)F)c1F	13.4
9) Cc1c([C@@H](C)NC(=O)c2cn(C3CCOCC3)c(=O)cc2NC[C@H]2CC[C@@H](N(C)C)CC2)cccc1C(F)(F)F	31.5
